target: Protein kinase C (PKC); experiment: Inhibitory activity against protein kinase C (PKC); type: protein assay, Homo sapiens
readout name: IC50 (µM)

- O=C(O[C@@H]1O[C@H]2COC(=O)c3cc(O)c(O)c(O)c3-c3c(cc(O)c(O)c3O)C(=O)O[C@H]2[C@@H]2OC(=O)c3cc(O)c(O)c(O)c3-c3c(cc(O)c(O)c3O)C(=O)O[C@H]12)c1cc(O)c(O)c(Oc2c(O)c(O)c(O)c3c2C(=O)O[C@H]2[C@@H]4OC(=O)c5cc(O)c(O)c(O)c5-c5c(cc(O)c(O)c5O)C(=O)O[C@@H]4[C@H](OC(=O)c4cc(O)c(O)c(O)c4)O[C@H]2COC(=O)c2cc(O)c(O)c(O)c2-3)c1: 5

The values you see were collected from ChEMBL document CHEMBL1149998.
